Values compiled from patent US8686147B2.

Target: 5-HT4 serotonin receptor (Cavia porcellus)
Construct: The starting materials used were an homogenate of guinea pig striatum; from tissue; host or cells: guinea pig striatum homogenate
Sequence (O70528 whole entry): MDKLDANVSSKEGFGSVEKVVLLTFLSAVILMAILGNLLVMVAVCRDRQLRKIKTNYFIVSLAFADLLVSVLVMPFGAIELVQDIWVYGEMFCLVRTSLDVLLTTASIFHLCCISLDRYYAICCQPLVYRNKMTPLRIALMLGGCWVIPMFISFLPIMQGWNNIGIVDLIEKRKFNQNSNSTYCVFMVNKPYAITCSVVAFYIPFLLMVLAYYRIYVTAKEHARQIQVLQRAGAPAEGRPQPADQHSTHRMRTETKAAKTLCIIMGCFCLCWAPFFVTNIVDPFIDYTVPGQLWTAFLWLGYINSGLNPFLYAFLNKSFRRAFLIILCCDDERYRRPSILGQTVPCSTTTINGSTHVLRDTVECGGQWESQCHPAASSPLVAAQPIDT
Assay: Binding to the 5-HT4 serotonin receptor (radioligand binding, homogenate of guinea pig striatum)
Conditions: six concentrations, read-out: 5-HT4 (pKi) (converted)
So I've got a bunch of compounds here, and I need their Ki values.
Entry format: amount then unit.

> print(dat)
                                   compound  observable  readout.value
1  Cn1cc2c(OCC3CCN(CC(=O)Nc4ccccc4)CC3)nc3ccccc3c2c1          Ki         132 nM

I have 8 compounds here; please give me Ki for each one.
1. CC(C)n1cc2c(OCC3CCN(CCc4ccccc4)CC3)nc3ccccc3c2c1
2. CC(=O)Nc1ccc(CCN2CCC(COc3nc4ccccc4c4cn(C)cc34)CC2)cc1
3. Cl.Cn1cc2c(OCC3CCN(CCN4CCOCC4)CC3)nc3ccccc3c2c1 [Compound 9a, hydrochloride]
4. COCc1ccc(CCN2CCC(COc3nc4ccccc4c4cn(C)cc34)CC2)cc1
5. Cn1cc2c(OCC3CCN(CCc4ccccc4)CC3)nc3ccccc3c2c1
6. CCCCN1CCC(COc2nc3ccccc3c3cn(C)cc23)CC1
7. Cl.Cn1cc2c(OCC3CCN(CCc4ccc(N)cc4)CC3)nc3ccccc3c2c1 [Compound 11a, hydrochloride]
8. Cn1cc2c(OCC3CCN(CCc4ccc(C(=O)O)cc4)CC3)nc3ccccc3c2c1 [Compound 12a]

1: 138 nM; 2: 1.86 nM; 3: 2.29 nM; 4: 19.1 nM; 5: 1.86 nM; 6: 14.8 nM; 7: 4.57 nM; 8: 2.24 nM
